Assayed Target: IRAK4 (Homo sapiens, UniProt Q9NWZ3)
Construct: endogenous in cells; host or cells: Karpas299
Method Notes: IRAK4 Degradation Assay (Karpas299, HTRF/TR-FRET)
Assay type: cell-based
Assay Conditions: Karpas-299 cells, 24 h treatment; maximum percentage of degradation; read-out: IRAK4 in Karpas-299 (24 h) Dmax (%)
Metric: Dmax (%)

CC(C)(O)c1cc2nn([C@H]3CC[C@H](N4CCN(C5CCN(c6ccc(C7CCC(=O)NC7=O)nc6)CC5)CC4)CC3)cc2cc1NC(=O)c1ccc2cc(C#N)cnn12 (stereo partly shown) ... 96
CC(C)(O)c1cc2nn([C@H]3CC[C@H](N4CCN(C(=O)C5CCN(c6ccc7c(c6)C(=O)N(C6CCC(=O)NC6=O)C7=O)CC5)CC4)CC3)cc2cc1NC(=O)c1ccc2cc(C#N)cnn12 (stereo partly shown) ... 97
CC(C)(O)c1cc2nn([C@H]3CC[C@H](N4CCN(CCCc5cc(F)c([C@H]6CCC(=O)NC6=O)c(F)c5)CC4)CC3)cc2cc1NC(=O)c1ccc2cc(C#N)cnn12 ... 97
COC[C@@H]1CN([C@H]2CC[C@H](n3cc4cc(NC(=O)c5ccc6cc(C#N)cnn56)c(C(C)(C)O)cc4n3)CC2)CCN1CCc1cc(F)c([C@H]2CCC(=O)NC2=O)c(F)c1 ... 99
COc1cc2nn(C3CCN(C4CN(C(=O)[C@@H]5CCN(c6cc(F)c([C@H]7CCC(=O)NC7=O)c(F)c6)C5)C4)CC3)cc2cc1NC(=O)c1cccc(C(F)(F)F)n1 ... 95
CC(C)(O)c1cc2nn([C@H]3CC[C@H](N4CCN(CC5CN(c6cc(F)c([C@H]7CCC(=O)NC7=O)c(F)c6)C5)CC4)CC3)cc2cc1NC(=O)c1coc2cccnc12 ... 96
COc1cc2nn([C@H]3CC[C@H](N4CCN(C(=O)C5CN(c6cc(F)c(N7CCC(=O)NC7=O)c(F)c6)C5)CC4)CC3)cc2cc1NC(=O)c1cccc(C(F)(F)F)n1 ... 97
COC[C@@H]1CN([C@H]2CC[C@H](n3cc4cc(NC(=O)c5ccc6cc(C#N)cnn56)c(C(C)(C)O)cc4n3)CC2)CCN1C1CN(c2cc(F)c([C@H]3CCC(=O)NC3=O)c(F)c2)C1 ... 98
COc1cc(N2CC(C(=O)N3CCN([C@H]4CC[C@H](n5cc6cc(NC(=O)c7ccc8cc(C#N)cnn78)c7c(c6n5)OCO7)CC4)CC3)C2)ccc1[C@H]1CCC(=O)NC1=O ... 98
COc1cc2nn([C@H]3CC[C@H](CN4CCN(C(=O)[C@@H]5CCN(c6ccc(N7CCC(=O)NC7=O)cc6)C5)CC4)CC3)cc2cc1NC(=O)c1cccn(C2CC2)c1=O ... 99

---

Assayed Target: IRAK4 (Homo sapiens)
Construct: endogenous in cells; host or cells: Karpas299
Sequence (Q9NWZ3 1-460): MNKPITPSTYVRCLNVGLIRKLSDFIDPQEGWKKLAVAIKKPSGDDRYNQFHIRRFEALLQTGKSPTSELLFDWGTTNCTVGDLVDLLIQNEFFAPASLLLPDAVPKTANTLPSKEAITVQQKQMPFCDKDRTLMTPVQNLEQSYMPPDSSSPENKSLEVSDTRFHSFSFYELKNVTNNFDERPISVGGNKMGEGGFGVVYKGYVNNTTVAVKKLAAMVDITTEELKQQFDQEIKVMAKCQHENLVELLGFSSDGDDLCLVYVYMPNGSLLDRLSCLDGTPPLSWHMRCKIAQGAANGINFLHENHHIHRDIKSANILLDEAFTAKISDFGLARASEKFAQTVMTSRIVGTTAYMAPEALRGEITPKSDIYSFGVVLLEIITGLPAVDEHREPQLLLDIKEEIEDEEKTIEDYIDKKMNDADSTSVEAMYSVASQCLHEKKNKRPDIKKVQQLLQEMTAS
Method Notes: IRAK4 Degradation Assay (Karpas299, HTRF/TR-FRET)
Assay type: cell-based
Assay Conditions: Karpas-299 cells, 24 h treatment; read-out: IRAK4 in Karpas-299 (24 h) DC50
Metric: DC50 (nM)

CC(C)(O)c1cc2nn([C@H]3CC[C@H](N4CCN([C@H]5C[C@H](c6ccc(N[C@@H]7CCC(=O)NC7=O)cc6)C5)CC4)CC3)cc2cc1NC(=O)c1ccc2cc(C#N)cnn12 [Example 272] ... 6.7
COc1cc(N2CC(C(=O)N3CCN([C@H]4CC[C@H](n5cc6cc(NC(=O)c7ccc8cc(C#N)cnn78)c(C(C)(C)O)cc6n5)CC4)CC3)C2)ccc1[C@H]1CCC(=O)NC1=O [Example 259] ... 0.8
CC(C)(O)c1cc2nn(C3CCN(C4CCN(C(=O)[C@H]5CCN(c6ccc(N7CCC(=O)NC7=O)cc6)C5)CC4)CC3)cc2cc1NC(=O)c1cccc(C(F)(F)F)n1 [Example 163] ... 3.8
CC(C)(O)c1cc2nn(C3CCN([C@@H]4CCN(C5CN(c6cc(F)c([C@H]7CCC(=O)NC7=O)c(F)c6)C5)CC4(F)F)CC3)cc2cc1NC(=O)c1ccc2cc(C#N)cnn12 [Example 342] ... 1.5
CC(C)(O)c1cc2nn([C@H]3CC[C@H](N4CCN(C(=O)CNc5cc(F)c([C@H]6CCC(=O)NC6=O)c(F)c5)CC4)CC3)cc2cc1NC(=O)c1ccc2cc(C#N)cnn12 [Example 193] ... 0.4
CC(C)(O)c1cc2nn([C@H]3CC[C@H](N4C[C@@H]5CN(CC6CN(c7cc(F)c(C8CCC(=O)NC8=O)c(F)c7)C6)C[C@H]5C4)CC3)cc2cc1NC(=O)c1ccc2cc(C#N)cnn12 (stereo partly shown) [Example 359] ... 2.4
CC(=O)c1cc2nn([C@H]3CC[C@H](N4CCN(C5CN(c6cc(F)c([C@H]7CCC(=O)NC7=O)c(F)c6)C5)CC4)CC3)cc2cc1NC(=O)c1ccc2cc(C#N)cnn12 [Example 425] ... 0.6

A: CC(C)(O)c1cc2nn([C@H]3CC[C@H](N4CCN(C(=O)[C@@H]5CCN(c6cc(F)c([C@H]7CCC(=O)NC7=O)c(F)c6)C5)CC4)CC3)cc2cc1NC(=O)c1cccn(C2CC2)c1=O [Example 103]
B: O=C1CC[C@H](c2c(F)cc(N3CC(C(=O)N4CCN([C@H]5CC[C@H](n6cc(NC(=O)c7coc(-c8ccnc(NCC(F)(F)F)c8)n7)c(C(F)F)n6)CC5)CC4)C3)cc2F)C(=O)N1 [Example 16]
Which has the smaller recorded DC50, A or B ? Could you answer with the label of the item you picked?
B

---

Assayed Target: IRAK4 (Homo sapiens)
Construct: endogenous in cells; host or cells: Karpas299
Method Notes: IRAK4 Degradation Assay (Karpas299, HTRF/TR-FRET)
Type: cell-based
Assay Conditions: Karpas-299 cells, 24 h treatment; read-out: IRAK4 in Karpas-299 (24 h) DC50
Metric: DC50 (nM)

I: O=C1CC[C@H](c2c(F)cc(N3CC(C(=O)N4CCN([C@H]5CC[C@H](n6cc7cc(NC(=O)c8cccc(C(F)(F)F)n8)c(C(=O)N[C@H]8C[C@H](CO)C8)cc7n6)CC5)CC4)C3)cc2F)C(=O)N1 [Example 167]
II: C[C@H]1CN(C2CN(c3cc(F)c([C@H]4CCC(=O)NC4=O)c(F)c3)C2)CCN1[C@H]1CC[C@H](n2cc3cc(NC(=O)c4ccc5cc(C#N)cnn45)c(C(C)(C)O)cc3n2)CC1 [Example 308]
When I and II are compared, which has the higher number for DC50? Answer = label.
II

---

Assayed Target: IRAK4 (Homo sapiens)
Construct: endogenous in cells; host or cells: Karpas299
Sequence (Q9NWZ3 1-460): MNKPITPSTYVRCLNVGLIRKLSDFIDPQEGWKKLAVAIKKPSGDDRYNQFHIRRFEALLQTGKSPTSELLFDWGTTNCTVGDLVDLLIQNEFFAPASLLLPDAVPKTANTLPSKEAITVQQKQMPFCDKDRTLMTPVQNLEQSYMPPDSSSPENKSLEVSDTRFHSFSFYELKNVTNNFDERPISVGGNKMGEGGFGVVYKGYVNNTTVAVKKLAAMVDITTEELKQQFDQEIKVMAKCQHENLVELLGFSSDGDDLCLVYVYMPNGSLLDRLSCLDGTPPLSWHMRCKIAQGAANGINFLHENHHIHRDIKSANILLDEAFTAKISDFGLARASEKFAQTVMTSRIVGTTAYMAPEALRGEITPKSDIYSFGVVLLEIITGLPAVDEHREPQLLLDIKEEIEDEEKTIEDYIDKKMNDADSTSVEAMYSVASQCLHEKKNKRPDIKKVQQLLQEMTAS
Method Notes: IRAK4 Degradation Assay (Karpas299, HTRF/TR-FRET)
Type: cell-based
Assay Conditions: Karpas-299 cells, 24 h treatment; read-out: IRAK4 in Karpas-299 (24 h) DC50
Metric: DC50 (nM)

P: CC(C)(O)c1cc2nn([C@H]3CC[C@H](N4CCN(C[C@H]5C[C@H](c6cc(F)c([C@H]7CCC(=O)NC7=O)c(F)c6)C5)CC4)CC3)cc2cc1NC(=O)c1ccc2cc(C#N)cnn12
Q: CC(C)(O)c1cc2nn(C3CCN([C@H]4CCN(CCc5cc(F)c([C@H]6CCC(=O)NC6=O)c(F)c5)CC4(F)F)CC3)cc2cc1NC(=O)c1ccc2cc(C#N)cnn12
Which one would you say has the larger DC50 value: P , or Q ? Please identify the chosen entry by its label.
Q
(Q: 2.5 nM, P: 0.4 nM)
